# assay_details: Inhibition of Escherichia coli LpxC C63A mutant using UDP-3-O-[(R)-3-hydroxymyristoyl]-N-acetylglucosamine as substrate measured after 30 mins by fluorescence based microplate assay
pKi: −log10 of the molar value.
Reported pKi is given for each of the following compounds.

{"cpd_smiles": "CC1(C)O[C@@H]2[C@@H](CN(C(=O)c3ccc(C#Cc4ccc(CN5CCOCC5)cc4)cc3)[C@H]2C(=O)NO)O1", "comparator": "<", "pKi": 4.56}
{"cpd_smiles": "O=C(NO)[C@@H]1C[C@H](O)[C@H](c2ccc(C#Cc3ccc(CN4CCOCC4)cc3)cc2)O1", "comparator": "=", "pKi": 4.92}
{"cpd_smiles": "O=C(NO)[C@@H]1CCCN1C(=O)c1ccc(C#Cc2ccc(CN3CCSCC3)cc2)cc1", "comparator": "=", "pKi": 5.21}
{"cpd_smiles": "CN(C)c1ccc(C#Cc2ccc(C(=O)N3C[C@@H](O)C[C@H]3C(=O)NO)cc2)cc1", "comparator": "=", "pKi": 5.64}
{"cpd_smiles": "O=C(NO)[C@H]1O[C@@H](c2ccc(C#Cc3ccc(CN4CCOCC4)cc3)cc2)[C@@H](O)[C@H]1O", "comparator": "<", "pKi": 4.56}
{"cpd_smiles": "O=C(NO)[C@@H]1C[C@H](F)CN1C(=O)c1ccc(C#Cc2ccccc2)cc1", "comparator": "=", "pKi": 5.04}
{"cpd_smiles": "O=C(NO)[C@@H]1CCCN1C(=O)c1ccc(C#Cc2ccc(CN3CCCCC3)cc2)cc1", "comparator": "<", "pKi": 4.56}
{"cpd_smiles": "O=C(NO)[C@@H]1C[C@H](O)CN1C(=O)c1ccc(C#Cc2ccc(CN3CCOCC3)cc2)cc1", "comparator": "=", "pKi": 5.39}

###

# assay_details: Inhibition of Escherichia coli LpxC C63A mutant using UDP-3-O-[(R)-3-hydroxymyristoyl]-N-acetylglucosamine as substrate measured after 30 mins by fluorescence based microplate assay

{"cpd_smiles": "O=C(NO)[C@@H]1C[C@@H](O)CN1Cc1ccc(C#Cc2ccc(CN3CCOCC3)cc2)cc1", "comparator": "=", "Ki, µM": 8.6}
{"cpd_smiles": "O=C(NO)[C@@H]1O[C@@H](c2ccc(C#Cc3ccc(CN4CCOCC4)cc3)cc2)[C@@H](O)[C@H]1O", "comparator": "=", "Ki, µM": 1.4}
{"cpd_smiles": "O=C(NO)[C@@H]1C[C@H](O)CN1C(=O)c1ccc(C#Cc2ccc(CN3CCC(O)CC3)cc2)cc1", "comparator": "=", "Ki, µM": 6.1}
{"cpd_smiles": "O=C(NO)[C@@H]1CCCN1Cc1ccc(C#Cc2ccc(CN3CCSCC3)cc2)cc1", "comparator": "=", "Ki, µM": 1.1}
{"cpd_smiles": "O=C(NO)[C@@H]1CCCN1C(=O)c1ccc(C#Cc2ccccc2)cc1", "comparator": ">", "Ki, µM": 27.6}

###

Reported diameter of the inhibition zone (DIZ) is given for each of the following compounds.
# System: Enterobacter cloacae
# assay_details: Antibacterial activity against Enterobacter cloacae assessed as diameter of inhibition zone measured after 24 hrs by agar disc diffusion method; note: test concentration or dose not given here
# Assay type: functional

{"cpd_smiles": "CCCCCc1ccc(C#Cc2ccc(C(=O)N3C[C@@H](O)C[C@H]3C(=O)NO)cc2)cc1", "diameter of the inhibition zone (DIZ)": "<6 mm"}
{"cpd_smiles": "O=C(NO)[C@@H]1CCCN1C(=O)c1ccc(C#Cc2ccc(CN3CCS(=O)(=O)CC3)cc2)cc1", "diameter of the inhibition zone (DIZ)": "10 mm"}
{"cpd_smiles": "CC1(C)O[C@@H]2[C@@H](CN(C(=O)c3ccc(C#Cc4ccc(CN5CCOCC5)cc4)cc3)[C@H]2C(=O)NO)O1", "diameter of the inhibition zone (DIZ)": "<6 mm"}
